MEASUREMENT_PROTOCOL: Estimation of solubility Cs by fitting PBPK model to total lung concentrations
Assay type: in vivo
REPORTED_CONDITIONS: rat, inhaled, 11.3 nmol/kg
PROPERTY: solubility (µM)
Field format: number, assumed µM, no unit text.

Problem: Quick one: solubility for CCC(=O)O[C@]1(C(=O)SCF)[C@H](C)C[C@H]2[C@@H]3C[C@H](F)C4=CC(=O)C=C[C@]4(C)[C@@]3(F)[C@@H](O)C[C@@]21C [fluticasone propionate] ?
Result: 4.53

====

MEASUREMENT_PROTOCOL: logD7.4
Type: physicochemical
REPORTED_CONDITIONS: pH 7.4
PROPERTY: logD

Problem: Quick one: logD for CCC(=O)O[C@]1(C(=O)SCF)[C@H](C)C[C@H]2[C@@H]3C[C@H](F)C4=CC(=O)C=C[C@]4(C)[C@@]3(F)[C@@H](O)C[C@@]21C [fluticasone propionate] ?
Result: 4.2

====

MEASUREMENT_PROTOCOL: In vitro apparent permeability across CaCo2-monolayers
Format: in vitro ADME
REPORTED_CONDITIONS: human, Caco-2
PROPERTY: Papp (×10⁻⁶ cm/s)
Field format: number, assumed ×10⁻⁶ cm/s, no unit text.

Problem: Quick one: Papp for CCC(=O)O[C@]1(C(=O)SCF)[C@H](C)C[C@H]2[C@@H]3C[C@H](F)C4=CC(=O)C=C[C@]4(C)[C@@]3(F)[C@@H](O)C[C@@]21C [fluticasone propionate] ?
Result: 46.9

====

MEASUREMENT_PROTOCOL: Fraction unbound in plasma
Assay type: in vitro ADME
PROPERTY: fraction unbound
Please reply with the number alone, leaving off any unit.

Problem: Quick one: fraction unbound for CCC(=O)O[C@]1(C(=O)SCF)[C@H](C)C[C@H]2[C@@H]3C[C@H](F)C4=CC(=O)C=C[C@]4(C)[C@@]3(F)[C@@H](O)C[C@@]21C [fluticasone propionate] ?
Result: 0.016

====

MEASUREMENT_PROTOCOL: PK study after i.v. administration in rats
Type: in vivo
REPORTED_CONDITIONS: rat, plasma, iv, 90 nmol/kg, Vdss (volume of distribution at steady state)
PROPERTY: Vd
Returns: string containing the number followed by the unit.

Problem: Quick one: Vd for CCC(=O)O[C@]1(C(=O)SCF)[C@H](C)C[C@H]2[C@@H]3C[C@H](F)C4=CC(=O)C=C[C@]4(C)[C@@]3(F)[C@@H](O)C[C@@]21C [fluticasone propionate] ?
Result: 12.5 L/kg

====

MEASUREMENT_PROTOCOL: PK study after i.v. administration in rats
Format: in vivo
REPORTED_CONDITIONS: rat, plasma, iv, 90 nmol/kg, CLP (plasma clearance)
PROPERTY: clearance (mL/min/kg)
Field format: number, assumed mL/min/kg, no unit text.

Problem: Quick one: clearance for CCC(=O)O[C@]1(C(=O)SCF)[C@H](C)C[C@H]2[C@@H]3C[C@H](F)C4=CC(=O)C=C[C@]4(C)[C@@]3(F)[C@@H](O)C[C@@]21C [fluticasone propionate] ?
Result: 182
